# credit: ChEMBL document CHEMBL4052626

test system: NCI-H1650; assay: Antiproliferative activity against human NCI-H1650 cells after 72 hrs by MTT assay; assay type: functional, cell-based; conditions: NCI-H1650, 72 h
pIC50: −log10 of the molar value.
// values below are reported pIC50

>  <compound>
CCCSc1nc(N2CCOCC2)c2nc(Nc3ccccc3Cl)sc2n1

>  <pIC50>
4.66

$$$$
>  <compound>
CCCSc1nc(N2CCOCC2)c2nc(Nc3cccc4ccccc34)sc2n1

>  <pIC50>
5.01

$$$$
>  <compound>
CCCSc1nc(N2CCOCC2)c2nc(Nc3ccccc3)sc2n1

>  <pIC50>
5.38

$$$$
>  <compound>
CCCSc1nc(N2CCOCC2)c2nc(Nc3ccccn3)sc2n1

>  <pIC50>
5.11

$$$$
>  <compound>
O=c1[nH]cc(F)c(=O)[nH]1 [FLUOROURACIL]

>  <pIC50>
4.90

$$$$
>  <compound>
CCCSc1nc(N2CCN(Cc3ccccc3)CC2)c2nc(Nc3ccccc3)sc2n1

>  <pIC50>
4.57

$$$$
>  <compound>
CCCSc1nc(N2CCSCC2)c2nc(Nc3ccccc3)sc2n1

>  <pIC50>
4.89

$$$$
>  <compound>
CCCSc1nc(NCc2ccc(O)cc2)c2nc(Nc3ccccc3)sc2n1

>  <pIC50>
5.03

$$$$
>  <compound>
CCCSc1nc(Nc2ccc(OC)cc2)c2nc(Nc3ccccc3)sc2n1

>  <pIC50>
4.69

$$$$
>  <compound>
CCCSc1nc(NCCc2cc3ccccc3[nH]2)c2nc(Nc3ccccc3)sc2n1

>  <pIC50>
5.02

$$$$
>  <compound>
CCCSc1nc(NCc2ccco2)c2nc(Nc3ccccc3)sc2n1

>  <pIC50>
4.58

$$$$
>  <compound>
CCCSc1nc(Nc2ccc(Cl)cc2)c2nc(Nc3ccccc3)sc2n1

>  <pIC50>
4.92

$$$$
>  <compound>
c1ccc(CSc2nc(N3CCOCC3)c3nc(Nc4ccccc4)sc3n2)cc1

>  <pIC50>
5.68

$$$$
>  <compound>
CCCCc1ccc(Nc2nc(SCCC)nc3sc(Nc4ccccc4)nc23)cc1

>  <pIC50>
4.83

$$$$
>  <compound>
CCCSc1nc(NCCc2cccs2)c2nc(Nc3ccccc3)sc2n1

>  <pIC50>
5.00

$$$$
>  <compound>
CCCSc1nc(Nc2ccccc2)c2nc(Nc3ccccc3)sc2n1

>  <pIC50>
4.92

$$$$
>  <compound>
CCCSc1nc(NC2CC2)c2nc(Nc3ccccc3)sc2n1

>  <pIC50>
4.38

$$$$
